Would you mind telling me the reported solubility thermodynamic at 4 h of each entry?
assay-details: Equilibrium aqueous solubility of the compound at pH 2.1 after 4 hrs
Format: physicochemical
particulars: aqueous medium
Numbers only, in µM.

>  <compound>
COc1ccc(N2CCOCC2)c2sc(NC(=O)C3(C)CCC(C)(O)CC3)nc12 (stereo not given)

>  <quantity-unit>
µM

>  <value-reported>
139

$$$$

Let's switch to this compound now.
[Q] Sample CCN(CC)C1CCC(C)(C(=O)Nc2nc3c(OC)ccc(N4CCOCC4)c3s2)CC1 (stereo not given) — what was its solubility thermodynamic at 4 h?
[A] 1840

---

assay-system: Adenosine receptor A1 (Homo sapiens)
Sequence (P30542 whole entry): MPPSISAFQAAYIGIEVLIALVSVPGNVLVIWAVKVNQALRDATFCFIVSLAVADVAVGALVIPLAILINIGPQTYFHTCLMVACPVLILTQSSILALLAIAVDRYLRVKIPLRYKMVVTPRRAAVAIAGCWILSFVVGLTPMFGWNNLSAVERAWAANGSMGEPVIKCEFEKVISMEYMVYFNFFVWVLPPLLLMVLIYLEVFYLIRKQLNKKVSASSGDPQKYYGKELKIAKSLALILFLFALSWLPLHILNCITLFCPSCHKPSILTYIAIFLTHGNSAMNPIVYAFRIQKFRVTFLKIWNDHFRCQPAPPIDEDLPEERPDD
assay-details: Displacement of [3H]-DPCPX from human adenosine A1 receptor expressed in HEK293 cell membranes measured after 90 mins
result-type: Ki
Record the result as number plus unit.

Example compounds with recorded Ki:
>  <compound>
CCN(CC)C1CCC(C)(C(=O)Nc2nc3c(OC)ccc(N4CCOCC4)c3s2)CC1 (configuration not stated)

>  <Ki>
1200 nM

$$$$
>  <compound>
COc1ccc(N2CCOCC2)c2sc(NC(=O)N3CCC(C)(O)CC3)nc12

>  <Ki>
1700 nM

$$$$
>  <compound>
COc1cnc(N2CCOCC2)c2sc(NC(=O)C(C)(C)Oc3ccc(F)cc3)nc12

>  <Ki>
500 nM

$$$$
>  <compound>
COc1ccc(N2CCOCC2)c2sc(NC(=O)C3(C)CCC(O)CC3)nc12 (configuration not stated)

>  <Ki>
90 nM

$$$$
>  <compound>
COc1ccc(N2CCOCC2)c2sc(NC(=O)C3(C)CCC(C)(O)CC3)nc12 (configuration not stated)

>  <Ki>
2900 nM

$$$$
>  <compound>
COc1ccc(N2CCOCC2)c2sc(NC(=O)C(C)(C)Oc3ccc(F)c(F)c3)nc12

>  <Ki>
1100 nM

$$$$

Let's switch to this compound now.
[Q] Sample COc1ccc(N2CCOCC2)c2sc(NC(=O)C(C)(C)Oc3ccc(F)cc3)nc12 — what was its Ki?
[A] 5000 nM

---

assay-system: UniProt:P29275
Sequence (P29275 whole entry): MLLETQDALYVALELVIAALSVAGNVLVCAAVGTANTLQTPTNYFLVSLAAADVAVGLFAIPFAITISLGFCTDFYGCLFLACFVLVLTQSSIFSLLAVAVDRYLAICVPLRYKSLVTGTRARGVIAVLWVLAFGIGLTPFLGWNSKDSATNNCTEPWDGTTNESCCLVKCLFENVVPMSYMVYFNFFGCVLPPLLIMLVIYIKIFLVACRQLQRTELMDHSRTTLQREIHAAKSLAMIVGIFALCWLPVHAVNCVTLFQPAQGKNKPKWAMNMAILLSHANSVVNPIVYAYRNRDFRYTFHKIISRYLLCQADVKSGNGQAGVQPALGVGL
assay-details: Displacement of [3H]-MRS-1754 from human adenosine A2B receptor expressed in HEK293 cell membranes measured after 90 mins
pKi: −log10 of the molar value.
Mark rule met for reported pKi of 6 or greater; mark rule not met for anything smaller.

Here are 4 compounds together with their reported answers.
>  <compound>
COc1ccc(N2CCOCC2)c2sc(NC(=O)C3(C)CCC(O)CC3)nc12 (stereo unspecified)

>  <group>
rule met

$$$$
>  <compound>
COc1ccc(N2CCOCC2)c2sc(NC(=O)C3(C)CCC(C)(O)CC3)nc12 (stereo unspecified)

>  <group>
rule met

$$$$
>  <compound>
COc1ccc(N2CCOCC2)c2sc(NC(=O)C(C)(C)Oc3ccc(F)c(F)c3)nc12

>  <group>
rule not met

$$$$
>  <compound>
COc1ccc(N2CCOCC2)c2sc(NC(=O)C(C)(C)Oc3ccc(F)cc3)nc12

>  <group>
rule not met

$$$$

[Q] Quick check: does CCN(CC)C1CCC(C)(C(=O)Nc2nc3c(OC)ccc(N4CCOCC4)c3s2)CC1 (stereo unspecified) have pKi greater than or equal to 6?
[A] rule met

Data origin: ChEMBL document CHEMBL4002602
